Value source: the supplement of paper PMC7877785

method: self-splicing fitness, log relative to wild type (ln ratio); higher = more splicing; Tetrahymena group I intron in knt gene, E. coli kanamycin selection, DiMSum; sequences stand for … in CUCUCU…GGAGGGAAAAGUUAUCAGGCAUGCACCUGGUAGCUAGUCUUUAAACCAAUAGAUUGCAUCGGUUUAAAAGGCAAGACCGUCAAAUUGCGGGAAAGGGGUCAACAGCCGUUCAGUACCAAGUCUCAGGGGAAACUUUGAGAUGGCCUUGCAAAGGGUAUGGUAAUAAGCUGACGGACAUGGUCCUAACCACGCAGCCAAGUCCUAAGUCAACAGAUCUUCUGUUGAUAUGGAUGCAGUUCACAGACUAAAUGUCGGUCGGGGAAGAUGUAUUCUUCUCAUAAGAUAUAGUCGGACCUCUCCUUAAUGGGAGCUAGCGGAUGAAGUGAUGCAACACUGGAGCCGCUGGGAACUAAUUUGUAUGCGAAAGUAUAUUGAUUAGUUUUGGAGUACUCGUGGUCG;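 note: selection with 25 µg/mL kanamycin versus none on LB agar overnight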
condition notes: 37 °C
Property: self-splicing fitness (ln); scope: individual sequences
readout name: self-splicing fitness (ln)

{"sequence code": "UAGUAGCAAUAUUACGCCAA", "readout name": "self-splicing fitness (ln)", "test value": -2.02}
{"sequence code": "UAGAAGCAAUAUUACGUAUC", "readout name": "self-splicing fitness (ln)", "test value": -2.01}
{"sequence code": "CAUCAGCAAUAUUACGUAGC", "readout name": "self-splicing fitness (ln)", "test value": -1.98}
